Every entry's value here was drawn from BigSolDB 2.1.

# DETAILS: in methanol, 312.95 K
TEST_READOUT: solubility (mole fraction)

{"STRUCTURE": "CC(=O)S[C@@H]1CC2=CC(=O)CC[C@]2(C)[C@H]2CC[C@@]3(C)[C@@H](CC[C@@]34CCC(=O)O4)[C@H]12", "EXPERIMENTAL_RESULT": 0.00139}

* * *

# DETAILS: in methanol, 278.85 K
TEST_READOUT: solubility (mole fraction)

{"STRUCTURE": "CC(=O)S[C@@H]1CC2=CC(=O)CC[C@]2(C)[C@H]2CC[C@@]3(C)[C@@H](CC[C@@]34CCC(=O)O4)[C@H]12", "EXPERIMENTAL_RESULT": 0.000202}
